Reference for the values: paper PMC6910256

Biological target: DUSP5 PD (Homo sapiens, UniProt Q16690)
Assay: DUSP5 phosphatase domain pNPP assay, IC50 from initial velocities
Assay type: biochemical
Settings: IC50 against DUSP5 PD activity, with 1 mM DTT, 60 min incubation, mean ± SD
For each of the compounds below, state its IC50.

Write down IC50 measured for item O=C1OC2(c3ccccc31)c1cc(Br)c(O)c(Br)c1Oc1c2cc(Br)c(O)c1Br
> 100 µM

Please report IC50 for the following compound: O=C1OC2(c3ccc(O)cc3Oc3cc(O)ccc32)c2ccccc21
> 300 µM

###

Target: DUSP5 PD (Homo sapiens, UniProt Q16690)
Test: Reaction progress curve analysis of irreversible DUSP5 PD inactivation
Format: biochemical
metric-name: Ki (µM)
Return type: number; implicit unit µM.

Given O=C1OC2(c3ccccc31)c1cc(Br)c(O)c(Br)c1Oc1c2cc(Br)c(O)c1Br , respond with its Ki.
43

###

Target: DUSP5 PD (Homo sapiens, UniProt Q16690)
Sequence (Q16690 178-319 limits assumed): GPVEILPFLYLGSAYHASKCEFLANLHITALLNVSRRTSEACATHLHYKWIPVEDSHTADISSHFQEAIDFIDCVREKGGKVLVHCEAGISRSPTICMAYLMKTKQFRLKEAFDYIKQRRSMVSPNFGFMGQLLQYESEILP
Assay: Reaction progress curve analysis of irreversible DUSP5 PD inactivation
Format: biochemical
Details: with 1 mM DTT, summary of data sets (Table 2)
I'd appreciate it if you could supply kinact/KI values for the items below.
Supply the numeric figure in M⁻¹ s⁻¹, leaving out any unit text.

Provide kinact/KI value for the following compound: O=C1OC2(c3ccccc31)c1cc(I)c(O)c(I)c1Oc1c2cc(I)c(O)c1I [Erythrosin B, 2’,4’,5’,7’-tetraiodofluorescein]
4.13

Could you please provide reported kinact/KI for O=C([O-])c1ccccc1-c1c2cc(Br)c(=O)cc-2oc2[c]([Hg+])c([O-])c(Br)cc12.[Na+].[Na+].[OH-] [Merbromin] ? Thanks!
6.22

For the compound O=C1OC2(c3cc(Br)c(O)cc3Oc3cc(O)c(Br)cc32)c2ccccc21 [2’,7’-dibromofluorescein] , report kinact/KI.
0.84

Report kinact/KI for O=C1OC2(c3ccccc31)c1cc(Br)c(O)c(Br)c1Oc1c2cc(Br)c(O)c1Br [Eosin Y, 2’,4’,5’,7’-tetrabromofluorescein]
0.9

In one line, give reported kinact/KI of the entry O=C1OC2(c3cc(Cl)c(O)cc3Oc3cc(O)c(Cl)cc32)c2ccccc21 [2’,7’-dichlorofluorescein] .
0.14

###

Target: DUSP5 PD (Homo sapiens, UniProt Q16690)
Sequence (Q16690 178-319 limits assumed): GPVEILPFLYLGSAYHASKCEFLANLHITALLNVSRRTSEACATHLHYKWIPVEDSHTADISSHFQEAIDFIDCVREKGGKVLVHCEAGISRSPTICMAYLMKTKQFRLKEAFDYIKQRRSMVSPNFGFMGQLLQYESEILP
metric-name: Kd
Please format your answer as a value with the unit trailing.

Output Kd of O=C(O)c1c(Cl)c(Cl)c(Cl)c(Cl)c1-c1c2cc(I)c(=O)c(I)c-2oc2c(I)c(O)c(I)cc12
690 nM

###

Biological target: GST-DUSP5 (full length DUSP5, pERK substrate) (Homo sapiens)
Sequence (Q16690 1-384): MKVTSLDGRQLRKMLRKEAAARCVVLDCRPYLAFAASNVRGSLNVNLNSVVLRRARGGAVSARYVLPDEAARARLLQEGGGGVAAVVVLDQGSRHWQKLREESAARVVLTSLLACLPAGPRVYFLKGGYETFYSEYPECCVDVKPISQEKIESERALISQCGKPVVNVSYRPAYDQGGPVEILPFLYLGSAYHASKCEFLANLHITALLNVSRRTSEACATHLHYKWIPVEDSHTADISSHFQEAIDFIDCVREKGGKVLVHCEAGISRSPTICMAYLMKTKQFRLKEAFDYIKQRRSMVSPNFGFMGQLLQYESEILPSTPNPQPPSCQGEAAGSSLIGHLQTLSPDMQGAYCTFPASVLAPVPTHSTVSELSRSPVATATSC
metric-name: pIC50
Please keep in mind that pIC50 is minus log10 of the molar concentration; only the number is needed.

Consider the molecule O=C1OC2(c3ccccc31)c1cc(Br)c(O)c(Br)c1Oc1c2cc(Br)c(O)c1Br [Eosin Y, 2’,4’,5’,7’-tetrabromofluorescein] . State its measured pIC50.
4.90
